Item-by-item account of Activity
# TEST DETAILS: Effect on total ATP level in Leber's optic atrophy disease patient GM10744 cells at 5 uM after 48 hrs by bioluminescence assay relative to control
# Format: functional, Homo sapiens
Give just the number in %; leave the unit off.

>>> data_value("CCCCCCCCCCC1=C(C)C(=O)C(OC)=C(OC)C1=O")
75.1
>>> data_value("Cc1nc(N(C)C)nc(CCCCCCCCCCO)c1O")
75.5
>>> data_value("COC1=C(OC)C(=O)C(CCCCCCCCCCO)=C(C)C1=O")
55.7
>>> data_value("CCCCCCCCCCCCCCCCc1nc(N(C)C)nc(C)c1O")
102.7

Below: the item to evaluate.
Reported Activity of CCCCCCCCCCc1nc(N(C)C)nc(C)c1O : 95.6
